# measured target: Telomerase reverse transcriptase (Homo sapiens, UniProt O14746)
# Sequence (O14746 whole entry): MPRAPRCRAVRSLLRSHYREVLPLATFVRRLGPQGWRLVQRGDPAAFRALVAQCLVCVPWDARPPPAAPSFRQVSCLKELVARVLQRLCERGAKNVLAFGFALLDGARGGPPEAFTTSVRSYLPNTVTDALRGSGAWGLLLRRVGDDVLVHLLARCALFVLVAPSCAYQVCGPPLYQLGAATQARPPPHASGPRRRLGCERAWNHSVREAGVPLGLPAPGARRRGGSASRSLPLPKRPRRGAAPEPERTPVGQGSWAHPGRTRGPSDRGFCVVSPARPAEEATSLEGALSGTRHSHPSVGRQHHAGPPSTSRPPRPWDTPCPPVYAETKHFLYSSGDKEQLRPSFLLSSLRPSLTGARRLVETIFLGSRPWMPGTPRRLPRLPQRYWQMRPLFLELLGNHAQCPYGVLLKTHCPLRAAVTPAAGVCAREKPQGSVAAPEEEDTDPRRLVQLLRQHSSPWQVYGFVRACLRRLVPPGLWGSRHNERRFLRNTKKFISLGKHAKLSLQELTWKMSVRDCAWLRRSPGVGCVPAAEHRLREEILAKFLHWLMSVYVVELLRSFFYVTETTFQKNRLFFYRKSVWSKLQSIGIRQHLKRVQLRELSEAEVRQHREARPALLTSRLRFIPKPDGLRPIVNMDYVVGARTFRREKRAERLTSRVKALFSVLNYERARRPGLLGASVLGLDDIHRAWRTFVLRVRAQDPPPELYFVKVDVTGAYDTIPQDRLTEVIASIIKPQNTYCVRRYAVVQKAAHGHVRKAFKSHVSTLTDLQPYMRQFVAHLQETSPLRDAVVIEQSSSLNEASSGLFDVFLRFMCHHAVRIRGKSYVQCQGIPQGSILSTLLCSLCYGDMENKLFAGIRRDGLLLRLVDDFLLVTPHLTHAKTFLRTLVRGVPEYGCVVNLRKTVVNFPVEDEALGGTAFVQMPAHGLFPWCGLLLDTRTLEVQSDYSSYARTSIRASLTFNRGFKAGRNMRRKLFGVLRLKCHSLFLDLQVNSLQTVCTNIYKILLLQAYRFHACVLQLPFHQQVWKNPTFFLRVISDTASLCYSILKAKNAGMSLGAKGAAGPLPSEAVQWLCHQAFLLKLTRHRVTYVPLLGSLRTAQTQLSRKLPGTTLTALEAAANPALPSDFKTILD
# experiment description: Effective concentration against telomerase by TRAP
property label: pEC50
Scale note: pEC50 = -log10(concentration in M).

**Q:** Report measured pEC50; entry is CCN(CC)CCNC(=O)CCCCC(=O)Nc1ccc(Nc2c3ccc(NC(=O)CCN4CCCC4)cc3nc3cc(NC(=O)CCN4CCCC4)ccc23)cc1
**A:** 7.01

**Q:** Report measured pEC50; entry is O=C(CCCCC(=O)N1CCOCC1)Nc1ccc(Nc2c3ccc(NC(=O)CCN4CCCC4)cc3nc3cc(NC(=O)CCN4CCCC4)ccc23)cc1
**A:** 6.57

**Q:** Report measured pEC50; entry is O=C(CCCCC(=O)N1CCCC1)Nc1ccc(Nc2c3ccc(NC(=O)CCN4CCCC4)cc3nc3cc(NC(=O)CCN4CCCC4)ccc23)cc1
**A:** 6.50

**Q:** Report measured pEC50; entry is CN1CCN(C(=O)CCCCC(=O)Nc2ccc(Nc3c4ccc(NC(=O)CCN5CCCC5)cc4nc4cc(NC(=O)CCN5CCCC5)ccc34)cc2)CC1
**A:** 6.78

**Q:** Report measured pEC50; entry is CN(C)c1ccc(Nc2c3ccc(NC(=O)CCN4CCCC4)cc3nc3cc(NC(=O)CCN4CCCC4)ccc23)cc1
**A:** 6.95

**Q:** Report measured pEC50; entry is CCN(CC)CCCCCCNC(=O)CCCCC(=O)Nc1ccc(Nc2c3ccc(NC(=O)CCN4CCCC4)cc3nc3cc(NC(=O)CCN4CCCC4)ccc23)cc1
**A:** 7.10

// data source = ChEMBL document CHEMBL1137170
